Biological target: T1, CBC (Homo sapiens, UniProt P52298)
T1 sequence (P52298 1-156): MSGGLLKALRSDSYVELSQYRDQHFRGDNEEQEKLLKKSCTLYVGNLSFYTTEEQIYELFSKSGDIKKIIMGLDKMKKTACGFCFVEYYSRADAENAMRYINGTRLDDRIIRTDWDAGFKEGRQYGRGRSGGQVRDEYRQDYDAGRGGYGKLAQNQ
T1 sequence (Q09161 20-790 partner): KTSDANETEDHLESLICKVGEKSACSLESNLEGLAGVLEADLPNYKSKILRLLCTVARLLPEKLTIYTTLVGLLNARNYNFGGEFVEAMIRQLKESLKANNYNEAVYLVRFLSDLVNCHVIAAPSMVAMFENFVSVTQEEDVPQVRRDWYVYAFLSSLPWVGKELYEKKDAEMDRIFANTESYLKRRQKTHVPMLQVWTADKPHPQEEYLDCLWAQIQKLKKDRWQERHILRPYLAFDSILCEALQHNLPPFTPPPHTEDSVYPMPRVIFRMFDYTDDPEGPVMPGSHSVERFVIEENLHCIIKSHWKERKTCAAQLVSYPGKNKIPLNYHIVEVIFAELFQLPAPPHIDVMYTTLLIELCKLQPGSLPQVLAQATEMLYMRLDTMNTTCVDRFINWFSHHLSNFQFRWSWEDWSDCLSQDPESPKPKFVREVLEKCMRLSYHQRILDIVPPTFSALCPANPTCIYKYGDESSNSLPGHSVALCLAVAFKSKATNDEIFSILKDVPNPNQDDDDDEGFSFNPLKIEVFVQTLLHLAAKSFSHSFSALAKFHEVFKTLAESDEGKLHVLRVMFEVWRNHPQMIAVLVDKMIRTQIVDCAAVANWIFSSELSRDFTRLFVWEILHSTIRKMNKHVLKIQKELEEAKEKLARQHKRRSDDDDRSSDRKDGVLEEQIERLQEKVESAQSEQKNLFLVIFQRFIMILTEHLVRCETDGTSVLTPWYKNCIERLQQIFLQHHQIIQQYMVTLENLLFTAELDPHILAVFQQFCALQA
Experiment: ITC, binding to CBC without cap analogue
Conditions: ITC (MicroCal ITC200), 25 °C, 20 mM HEPES, 120 mM NaCl, 2 mM TCEP, pH 7.8, single-site fit; no cap analogue pre-bound; mean ± SD of at least two independent experiments; SD
// values below are reported pKd
Just so you know, pKd here is -log10 of the concentration in molar units; reply with that number alone.

molecule	pKd
NELF-E 244–380: C-terminal human NELF-E fragment including the RRM domain, E. coli expressed (protein, UniProt P18615 244-380, looked up, fragment) GPFRRSDSFPERRAPRKGNTLYVYGEDMTPTLLRGAFSPFGNIIDLSMDPPRNCAFVTYEKMESADQAVAELNGTQVESVQLKVNIARKQPMLDAATGKSVWGSLAVQNSPKGCHRDKRTQIVYSDDVYKENLVDGF	6.40

# molecule PHAX 103–308: human PHAX residues 103–308 (protein, UniProt Q9H814 103-308, looked up, fragment) SQKPPVAGGKKINNIWGAVLQEQNQDAVATELGILGMEGTIDRSRQSETYNYLLAKKLRKESQEHTKDLDKELDEYMHGGKKMGSKEEENGQGHLKRKRPVKDRLGNRPEMNYKGRYEITAEDSQEKVADEISFRLQEPKKDLIARVVRIIGNKKAIELLMETAEVEQNGGLFIMNGSRRRTPGGVFLNLLKNTPSISEEQIKDIF ; its pKd = 6.22

// sample PHAX 103–294: human PHAX residues 103–294, minimal CBC binding region (protein, UniProt Q9H814 103-294, looked up, fragment) SQKPPVAGGKKINNIWGAVLQEQNQDAVATELGILGMEGTIDRSRQSETYNYLLAKKLRKESQEHTKDLDKELDEYMHGGKKMGSKEEENGQGHLKRKRPVKDRLGNRPEMNYKGRYEITAEDSQEKVADEISFRLQEPKKDLIARVVRIIGNKKAIELLMETAEVEQNGGLFIMNGSRRRTPGGVFLNLLK , its pKd was 6.07

Input PHAX 103–327: human PHAX residues 103–327, includes the full PHAX RBD (protein, UniProt Q9H814 103-327, looked up, fragment) SQKPPVAGGKKINNIWGAVLQEQNQDAVATELGILGMEGTIDRSRQSETYNYLLAKKLRKESQEHTKDLDKELDEYMHGGKKMGSKEEENGQGHLKRKRPVKDRLGNRPEMNYKGRYEITAEDSQEKVADEISFRLQEPKKDLIARVVRIIGNKKAIELLMETAEVEQNGGLFIMNGSRRRTPGGVFLNLLKNTPSISEEQIKDIFYIENQKEYENKKAARKRRT . Output pKd: 6.46

Origin of values: paper PMC5670239
